# ASSAY_SYSTEM: Helicobacter pylori urease (Helicobacter pylori, UniProt P69996)
# Construct: gene ureB; native urease from supernatant of sonicated H. pylori ATCC 43504; with urease subunit alpha (UreA)
# Sequence (P14916 whole entry): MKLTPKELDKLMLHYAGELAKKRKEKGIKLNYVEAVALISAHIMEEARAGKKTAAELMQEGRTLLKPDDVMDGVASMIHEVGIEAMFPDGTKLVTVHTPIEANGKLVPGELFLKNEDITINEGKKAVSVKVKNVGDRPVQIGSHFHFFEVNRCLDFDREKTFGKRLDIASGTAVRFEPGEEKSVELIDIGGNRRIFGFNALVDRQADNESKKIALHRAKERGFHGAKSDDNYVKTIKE
# Sequence (P69996 whole entry): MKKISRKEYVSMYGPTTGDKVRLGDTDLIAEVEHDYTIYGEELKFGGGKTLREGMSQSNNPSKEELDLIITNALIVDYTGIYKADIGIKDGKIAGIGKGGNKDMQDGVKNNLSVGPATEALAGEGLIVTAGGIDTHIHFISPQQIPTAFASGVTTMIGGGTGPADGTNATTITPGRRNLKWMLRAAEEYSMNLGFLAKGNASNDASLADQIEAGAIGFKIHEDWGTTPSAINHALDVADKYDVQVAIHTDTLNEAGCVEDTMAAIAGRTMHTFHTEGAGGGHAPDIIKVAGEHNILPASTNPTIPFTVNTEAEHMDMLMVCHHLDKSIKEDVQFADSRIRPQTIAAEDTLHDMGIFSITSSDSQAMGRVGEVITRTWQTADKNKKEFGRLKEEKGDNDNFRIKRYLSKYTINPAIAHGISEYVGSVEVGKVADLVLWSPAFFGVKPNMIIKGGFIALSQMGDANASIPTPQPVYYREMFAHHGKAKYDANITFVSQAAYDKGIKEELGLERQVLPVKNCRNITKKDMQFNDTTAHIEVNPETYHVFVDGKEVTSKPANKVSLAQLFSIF
# EXPERIMENTAL_PROTOCOL: Berthelot colorimetric urease activity assay with lysate supernatant (partially purified urease)
# Format: biochemical
# CONDITIONS_USED: read-out: IC50
MEASURE: IC50 (µM)
Just the number please, in µM, no unit attached.

Entry CC(=O)NO [AHA, acetohydroxamic acid] , Helicobacter pylori urease (Helicobacter pylori, UniProt P69996) data, IC50 value: 488
